test system: Human rhinovirus sp.; test: Antiviral activity against rhinoviral 4 serotype in a plaque inhibition assay using monolayers of M-HeLa cells; type: functional, organism-based
Attribute Measured: IC50 (µM)

> print(dat)
                              record.smiles     system.under.test  reported.value
1  CN(C)c1ccc(Cn2cnc3c(N(C)C)nc(C(F)(F)F)nc32)cc1  Human rhinovirus sp.             6.1
2  Cc1cc(Cn2cnc3c(N(C)C)nc(C(F)(F)F)nc32)ccc1Cl  Human rhinovirus sp.             7.6
3     CN(C)c1nc(C(F)(F)F)nc2c1ncn2Cc1ccccc1  Human rhinovirus sp.             8.8

P = CN(C)c1nc(C(F)(F)F)nc2c1ncn2Cc1ccc(Cl)c(Cl)c1
Q = CSc1ccc(Cn2cnc3c(N(C)C)nc(C(F)(F)F)nc32)cc1
R = COc1ccc(Cn2cnc3c(N(C)C)nc(C(F)(F)F)nc32)cc1C
## Input Please list these in order of increasing IC50. Thank you! Put the labels in the requested order and list them out.
## Output Q, R, P

###

system: Human rhinovirus sp.; assay: Percent inhibitory activity at 8 uM against rhinoviral 13 serotype in a plaque inhibition assay using monolayers of M-HeLa cells; assay type: functional
Inhibition overview
Numbers only here, please. The scale is %.

Look over these answered cases.
> print(dat)
                              record.smiles  attribute.measured  reported.value
1  CN(C)c1nc(C(F)(F)F)nc2c1ncn2Cc1ccc(Cl)c(N)c1          Inhibition              18
2  Cc1cc(Cl)ccc1Cn1cnc2c(N(C)C)nc(C(F)(F)F)nc21          Inhibition              23
3  Cc1ccc(Cn2cnc3c(N(C)C)nc(C(F)(F)F)nc32)c(C)c1          Inhibition              13
4  Cc1cc(Cn2cnc3c(N(C)C)nc(C(F)(F)F)nc32)ccc1Cl          Inhibition              13
5  CN(C)c1nc(C(F)(F)F)nc2c1ncn2Cc1cccc(F)c1          Inhibition              30

## Input Given the molecule `CN(C)c1nc(C(F)(F)F)nc2c1ncn2Cc1ccc(Br)cc1` , what is its reported Inhibition?
## Output 40

## Input // lookup Inhibition for `CN(C)c1nc(C(F)(F)F)nc2c1ncn2Cc1ccc(C(F)(F)F)cc1`
## Output 22

## Input Value lookup for Inhibition; key = `CN(C)c1ccc(Cn2cnc3c(N(C)C)nc(C(F)(F)F)nc32)cc1`
## Output 45

## Input Item under review: `CN(C)c1nc(C(F)(F)F)nc2c1ncn2Cc1ccc(Cl)c(Cl)c1` . Reported Inhibition?
## Output 23

## Input What value of Inhibition has been reported for the following molecule? `CN(C)c1nc(C(F)(F)F)nc2c1ncn2Cc1ccc(Cl)cc1Cl`
## Output 20

## Input Return reported Inhibition; argument: `CN(C)c1nc(C(F)(F)F)nc2c1ncn2Cc1ccc(F)cc1`
## Output 42

###

system: Human rhinovirus sp.; experiment: Percent inhibitory activity at 8 uM against rhinoviral 3 serotype in a plaque inhibition assay using monolayers of M-HeLa cells; format: functional
Attribute Measured: Inhibition (%)
Write the number in % without appending the unit.

> print(dat)
                              record.smiles     system.under.test  reported.value
1  CN(C)c1nc(C(F)(F)F)nc2c1ncn2Cc1ccc(C(F)(F)F)cc1  Human rhinovirus sp.              44
2  Cc1cc(Cn2cnc3c(N(C)C)nc(C(F)(F)F)nc32)ccc1Cl  Human rhinovirus sp.              44
3  CN(C)c1nc(C(F)(F)F)nc2c1ncn2Cc1ccc(Cl)c(Cl)c1  Human rhinovirus sp.              40
4  COc1ccc(Cn2cnc3c(N(C)C)nc(C(F)(F)F)nc32)cc1C  Human rhinovirus sp.              28

## Input Consider the molecule `CN(C)c1nc(C(F)(F)F)nc2c1ncn2Cc1ccc(Cl)c(NC=O)c1` and give its measured Inhibition.
## Output 40

## Input Requested read-out: Inhibition. Entry: `CN(C)c1nc(C(F)(F)F)nc2c1ncn2Cc1ccc(Cl)cc1Cl`
## Output 17

## Input # input molecule: `CN(C)c1nc(C(F)(F)F)nc2c1ncn2Cc1ccc(F)cc1` ; wanted: its Inhibition
## Output 35
